biological target: HuR full-length (FL-HuR, rHuR) (UniProt Q15717 1-326); test: EMSA; EMSA: 20 mM Tris-HCl pH 7.8, 150 mM KCl, 2 mM MgCl2, 0.1% Triton X-100, 0.5 mM DTT, heparin 5 mg/ml, BSA 1 mg/ml, 10% glycerol, on ice 15 min; 6% native PAGE, 0
Sequence (Q15717 whole entry): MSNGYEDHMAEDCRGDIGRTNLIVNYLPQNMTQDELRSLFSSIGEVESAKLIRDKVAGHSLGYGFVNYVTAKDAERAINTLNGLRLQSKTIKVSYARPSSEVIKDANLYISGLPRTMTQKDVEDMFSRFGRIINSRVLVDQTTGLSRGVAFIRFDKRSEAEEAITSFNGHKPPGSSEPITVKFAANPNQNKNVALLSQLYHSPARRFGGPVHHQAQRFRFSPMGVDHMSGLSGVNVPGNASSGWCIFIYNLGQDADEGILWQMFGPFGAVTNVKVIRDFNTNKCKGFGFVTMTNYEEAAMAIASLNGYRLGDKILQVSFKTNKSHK
value-kind: pKd
Lab note — pKd values are minus log10 of concentrations in M.

Input: Quote pKd reported for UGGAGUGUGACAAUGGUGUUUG (ssRNA) [miR-122 (5p)] please.
Output: 7.30
